# reported relative viability; entries follow
Tested on: NCI-H358
PROTOCOL_DETAILS: relative viability (nuclei count vs DMSO), 5 days (fraction); higher = more cells survive
COND: first compound 0.8 µM
Format: numeric value only, no unit, no commentary.

>  <COMPOUND>
CCCCCCCCCCCC1=C(O)C(=O)C=C(O)C1=O [Embelin] + CS(=O)(=O)CCNCc1ccc(-c2ccc3ncnc(Nc4ccc(OCc5cccc(F)c5)c(Cl)c4)c3c2)o1 [Lapatinib] (partner 2 µM)

>  <TARGET_DESC>
NCI-H358

>  <REPORTED_RESULT>
0.525

$$$$
>  <COMPOUND>
CCCCCCCCCCCC1=C(O)C(=O)C=C(O)C1=O [Embelin] + CS(=O)(=O)N1CCN(Cc2cc3nc(-c4cccc5[nH]ncc45)nc(N4CCOCC4)c3s2)CC1 [Pictilisib] (partner 1 µM)

>  <TARGET_DESC>
NCI-H358

>  <REPORTED_RESULT>
0.39

$$$$
>  <COMPOUND>
CCCCCCCCCCCC1=C(O)C(=O)C=C(O)C1=O [Embelin] + Cc1cc(Nc2cc(N3CCN(C)CC3)nc(Sc3ccc(NC(=O)C4CC4)cc3)n2)n[nH]1 [Tozasertib] (partner 0.1 µM)

>  <TARGET_DESC>
NCI-H358

>  <REPORTED_RESULT>
0.0994

$$$$
>  <COMPOUND>
CCCCCCCCCCCC1=C(O)C(=O)C=C(O)C1=O [Embelin] + N=C(N)NC(=N)NCCc1ccccc1 [Phenformin] (partner 250 µM)

>  <TARGET_DESC>
NCI-H358

>  <REPORTED_RESULT>
0.398

$$$$
>  <COMPOUND>
CCCCCCCCCCCC1=C(O)C(=O)C=C(O)C1=O [Embelin] + COc1cc2c(Oc3ccc(NC(=O)C4(C(=O)Nc5ccc(F)cc5)CC4)cc3F)ccnc2cc1OCCCN1CCOCC1 [Foretinib] (partner 0.25 µM)

>  <TARGET_DESC>
NCI-H358

>  <REPORTED_RESULT>
0.81

$$$$

Data point: CCCCCCCCCCCC1=C(O)C(=O)C=C(O)C1=O [Embelin] + CC(=O)c1c(C)c2cnc(Nc3ccc(N4CCNCC4)cn3)nc2n(C2CCCC2)c1=O [Palbociclib] (partner 0.5 µM) ; relative viability = 0.161

Data point: CCCCCCCCCCCC1=C(O)C(=O)C=C(O)C1=O [Embelin] + C[C@@H](Oc1cc(-c2cnn(C3CCNCC3)c2)cnc1N)c1c(Cl)ccc(F)c1Cl [Crizotinib] (partner 1 µM) ; relative viability = 0.851
